tested target: human Nav1.8 (hNav1.8) ion channel (Homo sapiens)
Sequence (Q9Y5Y9 whole entry): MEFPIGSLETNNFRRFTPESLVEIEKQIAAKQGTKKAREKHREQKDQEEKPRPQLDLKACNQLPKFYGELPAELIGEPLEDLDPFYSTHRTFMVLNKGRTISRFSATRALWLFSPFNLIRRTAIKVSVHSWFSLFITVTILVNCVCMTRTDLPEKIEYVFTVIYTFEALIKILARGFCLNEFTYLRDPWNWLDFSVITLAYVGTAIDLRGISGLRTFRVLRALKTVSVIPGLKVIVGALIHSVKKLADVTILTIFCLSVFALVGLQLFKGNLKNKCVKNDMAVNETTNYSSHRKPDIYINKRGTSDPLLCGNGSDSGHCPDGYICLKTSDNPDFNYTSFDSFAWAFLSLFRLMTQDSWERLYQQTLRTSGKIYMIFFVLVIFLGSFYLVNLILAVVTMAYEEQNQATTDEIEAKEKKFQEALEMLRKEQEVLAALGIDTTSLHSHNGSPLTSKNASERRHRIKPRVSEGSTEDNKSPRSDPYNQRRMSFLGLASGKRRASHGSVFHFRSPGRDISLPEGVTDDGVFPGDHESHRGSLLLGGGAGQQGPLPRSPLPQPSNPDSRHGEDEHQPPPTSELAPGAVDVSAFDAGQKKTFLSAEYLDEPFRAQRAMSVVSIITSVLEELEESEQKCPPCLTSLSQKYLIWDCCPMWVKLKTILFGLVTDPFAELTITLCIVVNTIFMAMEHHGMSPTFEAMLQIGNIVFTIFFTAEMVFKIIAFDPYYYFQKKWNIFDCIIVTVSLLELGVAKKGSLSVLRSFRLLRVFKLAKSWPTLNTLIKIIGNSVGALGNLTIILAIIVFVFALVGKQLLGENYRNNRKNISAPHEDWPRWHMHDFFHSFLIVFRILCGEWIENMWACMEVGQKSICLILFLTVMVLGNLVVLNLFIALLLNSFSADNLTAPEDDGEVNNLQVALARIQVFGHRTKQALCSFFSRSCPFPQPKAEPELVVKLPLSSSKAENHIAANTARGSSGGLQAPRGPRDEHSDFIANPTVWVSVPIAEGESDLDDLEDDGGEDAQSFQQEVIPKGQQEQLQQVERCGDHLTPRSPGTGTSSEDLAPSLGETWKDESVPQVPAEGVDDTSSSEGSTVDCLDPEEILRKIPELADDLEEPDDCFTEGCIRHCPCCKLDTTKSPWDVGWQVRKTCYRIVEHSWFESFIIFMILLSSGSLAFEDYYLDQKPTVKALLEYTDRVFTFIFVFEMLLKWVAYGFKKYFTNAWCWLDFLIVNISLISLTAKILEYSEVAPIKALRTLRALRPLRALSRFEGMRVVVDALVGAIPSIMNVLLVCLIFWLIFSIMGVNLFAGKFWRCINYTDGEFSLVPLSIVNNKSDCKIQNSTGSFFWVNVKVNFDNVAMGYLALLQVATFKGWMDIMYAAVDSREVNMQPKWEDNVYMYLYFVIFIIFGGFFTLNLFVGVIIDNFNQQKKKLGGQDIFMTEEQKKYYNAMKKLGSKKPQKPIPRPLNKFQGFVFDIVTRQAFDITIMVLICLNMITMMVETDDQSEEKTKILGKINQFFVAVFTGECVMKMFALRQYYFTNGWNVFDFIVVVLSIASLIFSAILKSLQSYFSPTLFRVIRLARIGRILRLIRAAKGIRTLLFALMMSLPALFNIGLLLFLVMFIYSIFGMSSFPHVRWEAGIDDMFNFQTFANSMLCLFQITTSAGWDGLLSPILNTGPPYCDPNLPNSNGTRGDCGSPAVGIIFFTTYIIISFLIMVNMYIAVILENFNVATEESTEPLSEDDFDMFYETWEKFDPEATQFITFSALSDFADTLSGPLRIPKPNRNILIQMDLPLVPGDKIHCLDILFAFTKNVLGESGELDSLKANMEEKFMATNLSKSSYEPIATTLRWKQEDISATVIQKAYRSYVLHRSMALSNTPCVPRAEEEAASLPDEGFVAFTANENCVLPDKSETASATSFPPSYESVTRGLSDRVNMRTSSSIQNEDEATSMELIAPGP
assay: Nav1.8 channel inhibition, estimated IC50 (one or more of: fluorescence inhibition assay, PatchXpress, IonFlux HT automated patch clamp)
measurement parameters: HEK293 cells stably expressing hNav1.8; method used per compound not stated; read-out: Activity range (estimated IC50)
Entries annotated with measured IC50

COc1ccc(Oc2cc(C(F)(F)F)ncc2C(=O)Nc2ccc[n+]([O-])c2)c(OC)c1 [Example 88]	< 500 nM
COc1cc(F)ccc1Oc1cc(C(F)(F)F)ncc1C(=O)Nc1cc(S(C)(=O)=O)ccc1F [Example 69]	< 500 nM
Cc1ccc(Oc2ncc(C(F)(F)F)cc2C(=O)Nc2cccc(S(C)(=O)=O)c2)c(C)c1 [Example 22]	> 1000 nM
CN=S(C)(=O)c1cccc(NC(=O)c2cnc(C(F)(F)F)cc2Oc2ccc(OC(F)(F)F)cc2)c1 (centres unmarked) [Example 92]	< 500 nM
CS(=O)(=O)c1cccc(NC(=O)c2cc(C(F)(F)F)cnc2Oc2ccc(OC(F)(F)F)cc2)c1 [Example 38]	< 500 nM
COc1cc(F)ccc1Oc1ncc(C(F)(F)F)cc1C(=O)Nc1ccc2ncsc2c1 [Example 1]	> 1000 nM
Cc1cc(F)ccc1Oc1ncc(C(F)(F)F)cc1C(=O)Nc1cccc(S(C)(=O)=O)c1 [Example 113]	500 to 1000 nM

Field: next compound
Param item = O=C(Nc1cccc(F)c1)c1cc(C(F)(F)F)cnc1Oc1ccc(OC(F)(F)F)cc1Cl [Example 163] ; retrieve measured IC50.
> 1000 nM

Data provenance is patent US12234221B2.
